percentage damage caused to the plant, five point scale, AMARE values by entry
test system: Amaranthus retoflexus (AMARE); assay: B2 Post-Emergence Efficacy Test 2; assay type: in vivo; conditions: 250 g/ha, after 13 days
READOUT LABEL: percentage damage caused to the plant, five point scale, AMARE

[
  {
    "COMPOUND": "Cc1nn(C)c(=O)c(-c2c(F)ccc(Cl)c2CCc2ccc3c(c2)OC(C)(C)C3)c1O [Compound 1.340]",
    "TARGET": "Amaranthus retoflexus (AMARE)",
    "RESULT": "5 (5=80-100%)"
  },
  {
    "COMPOUND": "Cc1nn(C)c(=O)c(-c2c(F)ccc(Cl)c2CCc2ccc3occc3c2)c1O [Compound 1.346]",
    "TARGET": "Amaranthus retoflexus (AMARE)",
    "RESULT": "2 (2=20-39%)"
  },
  {
    "COMPOUND": "Cc1nn(C)c(=O)c(-c2c(F)ccc(Cl)c2CCc2ccc3scnc3c2)c1O [Compound 1.350]",
    "TARGET": "Amaranthus retoflexus (AMARE)",
    "RESULT": "4 (4=60-79%)"
  },
  {
    "COMPOUND": "Cc1nn(C)c(=O)c(-c2c(F)ccc(Cl)c2CCc2nc3ccccc3o2)c1O [Compound 1.359]",
    "TARGET": "Amaranthus retoflexus (AMARE)",
    "RESULT": "3 (3=40-59%)"
  },
  {
    "COMPOUND": "Cc1nn(C)c(=O)c(-c2c(F)ccc(Cl)c2CCc2ccc3sccc3c2)c1O [Compound 1.348]",
    "TARGET": "Amaranthus retoflexus (AMARE)",
    "RESULT": "4 (4=60-79%)"
  },
  {
    "COMPOUND": "Cc1nn(C)c(=O)c(-c2c(F)ccc(Cl)c2/C=C/c2cn3ccnc3cn2)c1O [Compound 2.363]",
    "TARGET": "Amaranthus retoflexus (AMARE)",
    "RESULT": "1 (1=0-19%)"
  }
]
